Sourced from ChEMBL document CHEMBL1153701

- Tested on: Mus musculus
- Measurement Description: Antiepileptic activity in CF1 mouse assessed as inhibition of subcutaneous pentylenetetrazole-induced seizures at 100 mg/kg, ip after 4 hrs
- Assay type: functional, organism-based
- Design: dose 100 mg/kg
Calls of active or inactive are those of the source. No cut-off for these calls is given here.
Assay Endpoint: Activity

Previously resolved entries follow.
Molecule	Assayed Target	Reported Result
CCCC(C(N)=O)C(C)(C)C (configuration not stated)	Mus musculus	inactive
CCCC(CCC)C(=O)NC(N)=O	Mus musculus	inactive
CCCCC(CC)C(=O)NC (configuration not stated)	Mus musculus	inactive
CNC(=O)C(C(C)C)C(C)C	Mus musculus	inactive
CC(C)(C)C(N)=O	Mus musculus	inactive
CC(C)C(C(N)=O)C(C)(C)C (configuration not stated)	Mus musculus	inactive
CC(C)C(C)C(N)=O (configuration not stated)	Mus musculus	inactive
CC(C)CC(C(N)=O)C(C)C (configuration not stated)	Mus musculus	inactive
CCC(CC)C(N)=O	Mus musculus	inactive
CC(C)C(C(=O)NC(N)=O)C(C)C	Mus musculus	inactive

Q) Param item = CCC(CC(C)C)C(N)=O (configuration not stated) ; retrieve measured Activity.
A) inactive

Q) Form field: reported Activity of CCCCC(CC)C(N)=O (configuration not stated)
A) inactive

Q) Given CCCC(CC)C(N)=O (configuration not stated) , state its recorded Activity.
A) inactive

Q) Give the measured Activity of CCCCC(CC)C(=O)NC(N)=O (configuration not stated) .
A) inactive

Q) I'd like to know its Activity. The molecule in question is CCC(C)C(C(N)=O)C(C)C (configuration not stated)
A) inactive

Q) Record request: Activity value, item CCCC(CC(C)C)C(N)=O (configuration not stated)
A) inactive

Q) For CCC(C(N)=O)C(C)(C)C (configuration not stated) , what is its reported Activity?
A) inactive
